Tested on: Saccharomyces cerevisiae
Test: protein stability index of tFT-peptide fusion (C-terminal peptide) (PSI (0-1 scale)); higher = more stable (slower turnover);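 also: PSI is a weighted mean of sequencing reads over stability bins, variants kept only with over 10 reads, mCherry proximal and sfGFP distal, peptide attached via GGGS linker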
Conditions: genetic background: wild type; temperature: 30 C
Entries and their protein stability index
Answer field: number only, no words.

seq_string=LPGGRRPSQCPA target_desc="Saccharomyces cerevisiae" assay_endpoint="protein stability index" value_observed=0.645

[ask] # protein stability index lookup, item TAYRFYSYESSF
[reply] 0.678

[ask] Also check DQNRSTTVPRGY
[reply] 0.686

[ask] Also check RSWISGVRPSYP
[reply] 0.75

---

Tested on: Saccharomyces cerevisiae
Test: protein stability index of tFT-peptide fusion (C-terminal peptide) (PSI (0-1 scale)); higher = more stable (slower turnover)
Settings: genetic background: das1 deletion; temperature: 30 C
I would appreciate it if you labelled entries Criterion met when protein stability index is 0.3 or higher, otherwise Criterion not met.

seq_string=LLLPVFRFFFVN label_value="Criterion met"
seq_string=ARSGGYLMVVLV label_value="Criterion met"
seq_string=GIPVRRLLFLVA label_value="Criterion met"
seq_string=PTYTKYRTRQIN label_value="Criterion met"
seq_string=VIWIRMISFFVW label_value="Criterion not met"

[ask] Identify whether the reported protein stability index of the following sequence is 0.3 or greater: CFVPFFLPLCAF
[reply] Criterion not met

[ask] Also check LPVPARPFPPSS
[reply] Criterion met

[ask] Also check VLVLSFLYRMVK
[reply] Criterion met

---

System: Saccharomyces cerevisiae
Experiment: protein stability index of tFT-peptide fusion (C-terminal peptide) (PSI (0-1 scale)); higher = more stable (slower turnover)
Details: genetic background: cdc34-1; temperature: 37 C
assay-endpoint: protein stability index
Answer field: number only, no words.

seq_string=AFFLLVSLLVSP value_observed=0.0637
seq_string=SSRPLSPQSLRL value_observed=0.637
seq_string=LFTRSIRNLKSL value_observed=0.653
seq_string=VLICFSVFSWVV value_observed=0.0264
seq_string=LFWTLSKYLIIC value_observed=0.284

Now take the following sequence into account.
[ask] # protein stability index lookup, item FGVLLLFLFFLP
[reply] 0.347

---

System: Saccharomyces cerevisiae
Assay: protein stability index of tFT-peptide fusion (C-terminal peptide) (PSI (0-1 scale)); higher = more stable (slower turnover)
Details: genetic background: wild type; temperature: 30 C
Entries and their protein stability index

For orientation, consider the following solved cases.
seq_string=FFSFTTPHLSFA assay_endpoint="protein stability index" value_observed=0.688
seq_string=ILGDGRLRLISF assay_endpoint="protein stability index" value_observed=0.682
seq_string=VCVQECMPTAWR assay_endpoint="protein stability index" value_observed=0.704

Now take the following sequence into account.
[ask] # protein stability index lookup, item KKEKDKTINKQK
[reply] 0.697

---

Tested on: Saccharomyces cerevisiae
Assay: protein stability index of tFT-peptide fusion (C-terminal peptide) (PSI (0-1 scale)); higher = more stable (slower turnover)
Details: genetic background: wild type; temperature: 30 C
I would appreciate it if you labelled entries met when protein stability index is 0.6 or higher, otherwise not met.

Completed entries (count: 5):
seq_string=PLRLRCASLFAN target_desc="Saccharomyces cerevisiae" label_value="not met"
seq_string=GLYTRLYIPRPC target_desc="Saccharomyces cerevisiae" label_value=met
seq_string=GGRRVWAGRTGV target_desc="Saccharomyces cerevisiae" label_value=met
seq_string=LLHQSVHSHIPP target_desc="Saccharomyces cerevisiae" label_value="not met"
seq_string=ELDRIRPHEQSH target_desc="Saccharomyces cerevisiae" label_value=met

[ask] Identify whether the reported protein stability index of the following sequence is 0.6 or greater: ASPSAPPRPPTP
[reply] met

[ask] Also check AVNFESSHPICA
[reply] not met

[ask] Also check HICFPALKPGGA
[reply] met

[ask] Also check WCMMSWMSQFRP
[reply] met

[ask] Also check DIKKLNKKAKIK
[reply] met

[ask] Also check VGSRLVYSAFNV
[reply] met

[ask] Also check CSSTCRCCAAFD
[reply] met
